Source of measurements: patent US8404738B2

- TEST_TARGET: recombinant human HDAC8 (Homo sapiens)
- Construct: made in house; host or cells: insect cells
- Sequence (Q9BY41 whole entry): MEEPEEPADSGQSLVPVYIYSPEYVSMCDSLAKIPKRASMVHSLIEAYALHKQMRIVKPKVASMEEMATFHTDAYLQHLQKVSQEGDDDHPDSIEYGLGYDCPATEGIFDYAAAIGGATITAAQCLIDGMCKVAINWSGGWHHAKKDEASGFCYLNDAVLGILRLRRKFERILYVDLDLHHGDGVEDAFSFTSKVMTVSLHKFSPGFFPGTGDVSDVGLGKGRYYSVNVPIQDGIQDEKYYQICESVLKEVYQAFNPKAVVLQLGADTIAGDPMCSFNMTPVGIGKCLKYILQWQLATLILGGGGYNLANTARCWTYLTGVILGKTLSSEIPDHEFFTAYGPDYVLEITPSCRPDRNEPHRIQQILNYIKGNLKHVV
- PROCEDURE_SUMMARY: HDAC8 inhibition: recombinant HDAC8 fluorometric assay
- Type: biochemical
- PROTOCOL_CONDITIONS: recombinant human HDAC8, substrate Ac-Arg-His-Lys-Lys(ε-acetyl)-AMC; read-out: HDAC8 IC50
RECORDED_METRIC: IC50 (nM)
Your answer should be a plain number; it is taken to be in nM.

INPUT: Which IC50 reading was recorded for the compound O=C(NO)c1ccc(NC2CCN(c3ncccn3)C2)cc1 (stereo not shown) ?
OUTPUT: 1210

INPUT: Which IC50 reading was recorded for the compound C[C@H](c1ccccc1)N1CCC(Nc2ccc(C(=O)NO)cc2)C1=O (stereo partly shown) [Example 44] ?
OUTPUT: 700

INPUT: Which IC50 reading was recorded for the compound CC1(Nc2ccc(C(=O)NO)cc2)CCN(c2cccc3cccnc23)C1=O (stereo not shown) ?
OUTPUT: 710

INPUT: Which IC50 reading was recorded for the compound CC1(Nc2ccc(C(=O)NO)cc2)CCN(c2cccc(F)c2)C1=O (stereo not shown) ?
OUTPUT: 910

INPUT: Which IC50 reading was recorded for the compound O=C(NO)c1ccc(NC2CCN(c3ccc(Oc4ccccc4)cc3)C2=O)cc1 (stereo not shown) ?
OUTPUT: 4140

INPUT: Which IC50 reading was recorded for the compound N#Cc1ccc(N2CCC(Nc3ccc(C(=O)NO)cc3)C2=O)cc1 (stereo not shown) ?
OUTPUT: 1050

INPUT: Which IC50 reading was recorded for the compound COc1ccc(CN2CCC(Nc3ccc(C(=O)NO)cc3)C2=O)cc1 (stereo not shown) ?
OUTPUT: 390

INPUT: Which IC50 reading was recorded for the compound O=C(NO)c1ccc(NC2CCN(c3ccc(F)c(Cl)c3)C2=O)cc1 (stereo not shown) ?
OUTPUT: 1210

INPUT: Which IC50 reading was recorded for the compound CC1(Nc2ccc(C(=O)NO)cc2)CCN(c2ccc3ncccc3c2)C1=O (stereo not shown) ?
OUTPUT: 890

INPUT: Which IC50 reading was recorded for the compound CC(C)Oc1ccc(N2CCC(Nc3ccc(C(=O)NO)cc3)C2=O)cc1 (stereo not shown) ?
OUTPUT: 1800

INPUT: Which IC50 reading was recorded for the compound COc1cccc(N2CCC(Nc3ccc(C(=O)NO)cc3)C2=O)c1 (stereo not shown) ?
OUTPUT: 590

INPUT: Which IC50 reading was recorded for the compound CS(=O)(=O)c1ccc(N2CCC(Nc3ccc(C(=O)NO)cc3)C2=O)cc1 (stereo not shown) ?
OUTPUT: 1190

INPUT: Which IC50 reading was recorded for the compound CC(C)(c1ccccc1)N1CC(Nc2ccc(C(=O)NO)cc2)CC1=O (stereo not shown) ?
OUTPUT: 1880

INPUT: Which IC50 reading was recorded for the compound CC1(Nc2ccc(C(=O)NO)cc2)CCN(c2cccc(Cl)c2)C1=O (stereo not shown) ?
OUTPUT: 160

INPUT: Which IC50 reading was recorded for the compound O=C(NO)c1ccc(NC2CCN(c3ccc(Cl)cc3)C2=O)cc1 (stereo not shown) ?
OUTPUT: 550

INPUT: Which IC50 reading was recorded for the compound O=C(NO)c1ccc(NC2CCN(S(=O)(=O)c3ccc(F)cc3)C2)cc1 (stereo not shown) ?
OUTPUT: 1120

INPUT: Which IC50 reading was recorded for the compound O=C(NO)c1ccc(NC2CCN(S(=O)(=O)c3ccc(Cl)cc3)C2)cc1 (stereo not shown) ?
OUTPUT: 1540

INPUT: Which IC50 reading was recorded for the compound O=C(NO)c1ccc(NC2CCN(c3cccc(Cl)c3Cl)C2=O)cc1 (stereo not shown) ?
OUTPUT: 770

INPUT: Which IC50 reading was recorded for the compound CC1(Nc2ccc(C(=O)NO)cc2)CCN(C(C)(C)c2ccccc2)C1=O (stereo not shown) ?
OUTPUT: 320
